- protocol_notes: plasma level in the stasis-induced thrombosis study, rectal application
- Type: in vivo
- reported_conditions: rat, rectal 5 mg/kg, 30 min
measurement_name: concentration at 0.5 h (ng/mL)
Express it in ng/mL; write the number only.

// concentration at 0.5 h lookup, key: CC(=O)N1CCN(C(=O)[C@H](Cc2cccc(C(=N)N)c2)NS(=O)(=O)c2ccc3ccccc3c2)CC1.Cl 228

###

- target_system: factor XIIa (Homo sapiens)
- Sequence (P00748 373-615 limits assumed): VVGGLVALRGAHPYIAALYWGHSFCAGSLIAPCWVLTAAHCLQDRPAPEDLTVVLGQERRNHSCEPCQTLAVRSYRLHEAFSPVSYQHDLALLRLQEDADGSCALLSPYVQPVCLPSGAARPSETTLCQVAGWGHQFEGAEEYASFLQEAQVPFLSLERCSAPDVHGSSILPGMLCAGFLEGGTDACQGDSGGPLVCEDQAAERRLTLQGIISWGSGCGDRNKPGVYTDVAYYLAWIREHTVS
- protocol_notes: inhibition of factor XIIa, dissociation constant Ki
- reported_conditions: read-out: Ki, Factor XIIa; Table 1
Each item that follows carries a reported pKi.
API: returns pKi as number; meaning -log10 of concentration in mol/L.

// known answers, use as guide
>>> meas_value("CC1(C)C2CCC1(CS(=O)(=O)N[C@@H](Cc1cccc(C(=N)N)c1)C(=O)N1CCN(S(C)(=O)=O)CC1)C(=O)C2 (single isomer, unassigned) [Compound 7]")
4.21
>>> meas_value("CC1(C)C2CCC1(CS(=O)(=O)N[C@@H](Cc1cccc(C(=N)N)c1)C(=O)N1CCN(S(C)(=O)=O)CC1)C(=O)C2 (single isomer, unassigned) [Compound 8]")
4.15

Proceeding to the next compound to report its pKi.
Given the compound CN(C)C(=O)N1CCN(C(=O)C(Cc2cccc(C(=N)N)c2)NS(=O)(=O)c2cccc3ccccc23)CC1 (stereo not drawn) [AMD 1-Naph CO2 N(Me)2] , what is its reported pKi? 4.14

###

- protocol_notes: in vivo
- reported_conditions: plasma; rat, intraduodenal 100 mg/kg, 300 min
Below, each entry is listed with its recorded concentration at 5 h.

>>> meas_value("CC(=O)N1CCN(C(=O)[C@H](Cc2cccc(C(=N)N)c2)NS(=O)(=O)c2ccc3ccccc3c2)CC1.Cl")
"2200 ng/mL"
>>> meas_value("CS(=O)(=O)N1CCN(C(=O)[C@H](Cc2cccc(C(=N)N)c2)NS(=O)(=O)c2ccc3ccccc3c2)CC1.Cl")
"137 ng/mL"

Consider now this further molecule.
State the recorded concentration at 5 h for this entry: CN(C)C(=O)N1CCN(C(=O)[C@H](Cc2cccc(C(=N)N)c2)NS(=O)(=O)c2ccc3ccccc3c2)CC1 1200 ng/mL

###

Ki: recorded values
- target_system: UniProt P00750
- Sequence (P00750 36-562): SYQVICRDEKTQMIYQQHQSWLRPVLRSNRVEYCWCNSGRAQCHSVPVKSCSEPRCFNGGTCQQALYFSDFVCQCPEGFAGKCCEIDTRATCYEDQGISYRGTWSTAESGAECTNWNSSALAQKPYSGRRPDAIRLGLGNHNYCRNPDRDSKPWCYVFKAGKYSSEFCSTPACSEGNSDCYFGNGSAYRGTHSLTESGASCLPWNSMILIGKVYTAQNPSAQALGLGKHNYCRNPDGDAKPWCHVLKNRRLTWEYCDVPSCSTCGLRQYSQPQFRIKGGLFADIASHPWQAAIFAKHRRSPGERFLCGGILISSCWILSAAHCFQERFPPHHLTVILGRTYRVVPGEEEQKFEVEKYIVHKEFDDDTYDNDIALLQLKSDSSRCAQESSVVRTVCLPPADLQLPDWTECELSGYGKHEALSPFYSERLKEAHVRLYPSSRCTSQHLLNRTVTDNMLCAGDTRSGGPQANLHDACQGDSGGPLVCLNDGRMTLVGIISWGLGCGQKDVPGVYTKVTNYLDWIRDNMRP
- protocol_notes: inhibition of tPA, dissociation constant Ki
Numeric only. Scale: µM

>>> meas_value("N=C(N)c1cccc(C[C@H](NS(=O)(=O)c2ccc3ccccc3c2)C(=O)N2CCN(C=O)CC2)c1 [AMD(L) 2-Naph For]")
120

Using the record for CC(=O)N1CCN(C(=O)C(Cc2cccc(C(=N)N)c2)NS(=O)(=O)c2c(C(C)C)cc(C(C)C)cc2C(C)C)CC1 (stereo not shown) [AMD TIPP Ac] , report its Ki. 17

###

Measured Clotting time, Thrombin time, listed per entry.
- Tested on: coagulation in rat plasma
- protocol_notes: thrombin time in rat plasma after rectal application
- Assay type: in vivo
- reported_conditions: rectal 5 mg/kg, 0 min

Some compounds with recorded Clotting time, Thrombin time:
>>> meas_value("Cl.Cl.N=C(N)c1cccc(C[C@H](NS(=O)(=O)c2ccc3ccccc3c2)C(=O)N2CCN(CCO)CC2)c1")
"45 s"
>>> meas_value("CS(=O)(=O)N1CCN(C(=O)[C@H](Cc2cccc(C(=N)N)c2)NS(=O)(=O)c2ccc3ccccc3c2)CC1.Cl")
"51.5 s"
>>> meas_value("CC(=O)N1CCN(C(=O)[C@H](Cc2cccc(C(=N)N)c2)NS(=O)(=O)c2ccc3ccccc3c2)CC1.Cl")
"32 s"

Please turn your attention to the following entry.
Endpoint output: Clotting time, Thrombin time of CN(C)C(=O)N1CCN(C(=O)[C@H](Cc2cccc(C(=N)N)c2)NS(=O)(=O)c2ccc3ccccc3c2)CC1 . Value? 55.3 s

Data credit: patent US5607937A
